- assayed.system: Fatty-acid amide hydrolase 1 (Rattus norvegicus)
- Sequence (P97612 whole entry): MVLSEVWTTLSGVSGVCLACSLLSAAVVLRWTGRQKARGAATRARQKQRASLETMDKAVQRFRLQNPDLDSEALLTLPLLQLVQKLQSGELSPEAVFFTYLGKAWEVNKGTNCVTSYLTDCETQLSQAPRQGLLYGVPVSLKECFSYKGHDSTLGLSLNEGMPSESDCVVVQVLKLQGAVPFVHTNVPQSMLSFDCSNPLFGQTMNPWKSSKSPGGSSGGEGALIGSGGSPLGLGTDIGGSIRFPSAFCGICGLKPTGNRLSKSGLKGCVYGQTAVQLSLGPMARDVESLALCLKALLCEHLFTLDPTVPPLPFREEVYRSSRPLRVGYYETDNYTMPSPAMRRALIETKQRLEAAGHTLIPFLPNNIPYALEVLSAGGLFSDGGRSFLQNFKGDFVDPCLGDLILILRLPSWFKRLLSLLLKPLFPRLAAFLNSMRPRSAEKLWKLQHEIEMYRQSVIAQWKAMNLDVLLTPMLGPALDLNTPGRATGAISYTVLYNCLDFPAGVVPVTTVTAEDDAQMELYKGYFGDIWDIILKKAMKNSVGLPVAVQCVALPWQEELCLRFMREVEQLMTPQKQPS
- protocol: Inhibition of rat histidine tagged FAAH expressed in Escherichia coli by coumarin ester substrate fluorescence assay
parameter.measured: IC50 (µM)
Give just the number in µM; leave the unit off.

Any idea what IC50 was measured for `O=C(Oc1ccc([N+](=O)[O-])cc1)N1CCC(C(O)(c2ccc3c(c2)OCO3)c2ccc3c(c2)OCO3)CC1` ?
0.974

Next up: `O=C(NCCCCCCNC(=O)ON=C1CCCCC1)ON=C1CCCCC1`
2.24

Next up: O=S(=O)(F)Cc1ccccc1 [PHENYLMETHYLSULFONYLFLUORIDE]
0.833

====

- Test system: Bacteria
- protocol: Inhibition of bacterial lipoprotein lipase at 10 uM by FRET assay
Give inhibition for every item shown.

Any idea what inhibition was measured for `CCCCCCCCCCC[C@@H](C[C@@H]1OC(=O)[C@H]1CCCCCC)OC(=O)[C@@H](NC=O)[C@H](C)CC` ?
61%

Next up: `NC(=O)c1cccc(-c2cccc(OC(=O)NC3CCCCC3)c2)c1`
21%

Next up: CCCCCCC[C@H]1OC(=O)[C@H]1CCCCCC (racemic)
33%

Next up: `CCCCCCCCCCC[C@@H](C[C@@H]1OC(=O)[C@H]1CCCCCC)OC(=O)[C@@H](NC=O)[C@@H](C)CC`
84%

Next up: CCCCCCCCCCCCCC1CC(=O)O1 (racemic)
< 0%

Ref: ChEMBL document CHEMBL2169869
